Hello, the source for this data is patent US20220022457A1, in case you need it.

# Test system: Candida albicans (ATCC 10231, fungus)
# experiment: Minimum inhibitory concentration, microdilution assay
# Type: cell-based
# condition.parameters: Candida albicans ~10^6 CFU/ml; YMB; room temperature; no visible growth
The entries below are paired with their reported MIC C.A..

molecule.smiles	reading.unit	value.operator	MIC C.A.
CCCCCCCC[n+]1ccn(Cc2ccccc2C[N+]23CC[N+](Cc4ccccc4Cn4cc[n+](CCCCCCCC)c4)(CC2)CC3)c1.[Br-].[Br-].[Br-].[Br-]	µg/mL	=	62
CCCCCCCC[N+]12CC[N+](Cc3ccccc3C[N+]34CC[N+](CCCCCCCC)(CC3)CC4)(CC1)CC2.[Br-].[Br-].[Br-].[Br-]	µg/mL	=	125
c1ccc(Cn2cc[n+](Cc3ccc(C[N+]45CC[N+](Cc6ccc(C[N+]78CC[N+](Cc9ccc(C[n+]%10ccn(Cc%11ccccc%11)c%10)cc9)(CC7)CC8)cc6)(CC4)CC5)cc3)c2)cc1	µg/mL	=	2000
CCCCCCCC[n+]1ccn(CC=CC[N+]23CC[N+](CC=CCn4cc[n+](CCCCCCCC)c4)(CC2)CC3)c1.[Br-].[Br-].[Br-].[Br-]	µg/mL	>	500
CCCCCCCC[n+]1ccn(Cc2ccc(C[N+]34CC[N+](Cc5ccc(C[N+]67CC[N+](Cc8ccc(Cn9cc[n+](CCCCCCCC)c9)cc8)(CC6)CC7)cc5)(CC3)CC4)cc2)c1.[Br-].[Br-].[Br-].[Br-].[Br-].[Br-]	µg/mL	=	62
CCCCCCCC[n+]1ccn(Cc2ccc(C[N+]34CC[N+](Cc5ccc(Cn6cc[n+](CCCCCCCC)c6)cc5)(CC3)CC4)cc2)c1.[Br-].[Br-].[Cl-].[Cl-]	µg/mL	=	125
CCCCCCCC[n+]1ccn(Cc2ccc(Cn3cc[n+](Cc4ccc(C[N+]56CC[N+](C/C=C/C[N+]78CC[N+](Cc9ccc(C[n+]%10ccn(Cc%11ccc(Cn%12cc[n+](CCCCCCCC)c%12)cc%11)c%10)cc9)(CC7)CC8)(CC5)CC6)cc4)c3)cc2)c1.[Br-].[Br-].[Br-].[Br-].[Br-].[Br-].[Br-].[Br-]	µg/mL	=	31
C(=C\C[N+]12CC[N+](Cc3ccc(C[n+]4ccn(Cc5ccccc5)c4)cc3)(CC1)CC2)/C[N+]12CC[N+](Cc3ccc(C[n+]4ccn(Cc5ccccc5)c4)cc3)(CC1)CC2	µg/mL	>	1000
